- System: Gram (+) bacteria (E. faecalis or S. aureus)
- assay explanation: Time-kill experiments, Gram (+)
- applied conditions: four-times the MIC, 0 to 24 hours
Structures can show the parent of a compound that is named as a salt.
measured quantity: Time-kill mode of action against Gram (+) bacteria

* COC(=O)c1c(C)c2c(c(C)c1O)OC(=O)c1c(C)c(Cl)c(O)c(Cl)c1O2 [Class 2] | bacteriostatic
* NC(N)=NN=C(/C=C/c1ccc([N+](=O)[O-])o1)/C=C/c1ccc([N+](=O)[O-])o1 [Class 5, hydrochloride] | bactericidal
* O=C(N/N=C/c1ccc([N+](=O)[O-])o1)c1cc([N+](=O)[O-])cc([N+](=O)[O-])c1O [Class 4] | bacteriostatic
* O=C(/C=C/c1ccccc1)c1ccc(O)cc1O [Class 1] | bactericidal
* Cc1cc(C)nc(NC(=N)Nc2ccc(OCc3ccc(Cl)cc3)cc2)n1 [Class 6] | bactericidal

---

Reported MIC values for the following compounds.
- System: Enterococcus faecalis (ATCC 29212)
- assay explanation: Broth microdilution MIC
- Type: cell-based
- applied conditions: ATCC29212, ATCC 29212, read-out: MIC E. faecalis
Structures can show the parent of a compound that is named as a salt.
measured quantity: MIC (µg/mL)

* O=C(N/N=C/c1ccc([N+](=O)[O-])o1)c1cc([N+](=O)[O-])cc([N+](=O)[O-])c1O | 128
* COC(=O)c1c(C)c2c(c(C)c1O)OC(=O)c1c(C)c(Cl)c(O)c(Cl)c1O2 | 8
* Cc1cc(C)nc(NC(=N)Nc2ccc(OCc3ccc(Cl)cc3)cc2)n1 | 16
* NC(N)=NN=C(/C=C/c1ccc([N+](=O)[O-])o1)/C=C/c1ccc([N+](=O)[O-])o1 [Class 5, hydrochloride] | 128

---

- System: E. coli (ATCC 25922)
- assay explanation: Broth microdilution MIC
- Type: cell-based
- applied conditions: Escherichia coli, ATCC25922; ATCC 25922; read-out: MIC E. coli
Where a name gives a salt, the structure may show the parent alone.
measured quantity: MIC

• COC(=O)c1c(C)c2c(c(C)c1O)OC(=O)c1c(C)c(Cl)c(O)c(Cl)c1O2 = > 128 µg/mL
• Cc1cc(C)nc(NC(=N)Nc2ccc(OCc3ccc(Cl)cc3)cc2)n1 = 64 µg/mL
• O=C(N/N=C/c1ccc([N+](=O)[O-])o1)c1cc([N+](=O)[O-])cc([N+](=O)[O-])c1O = > 128 µg/mL
• NC(N)=NN=C(/C=C/c1ccc([N+](=O)[O-])o1)/C=C/c1ccc([N+](=O)[O-])o1 [Class 5, hydrochloride] = > 128 µg/mL

---

- System: H. influenzae
- assay explanation: Time-kill experiments, Gram (−)
- applied conditions: four-times the MIC, 0 to 24 hours
Counter-ions that a name gives are not always drawn.
measured quantity: Time-kill mode of action against Gram (−) bacteria

- COC(=O)c1c(C)c2c(c(C)c1O)OC(=O)c1c(C)c(Cl)c(O)c(Cl)c1O2: bacteriostatic
- O=C(/C=C/c1ccccc1)c1ccc(O)cc1O: bactericidal
- Cc1cc(C)nc(NC(=N)Nc2ccc(OCc3ccc(Cl)cc3)cc2)n1: bactericidal
- NC(N)=NN=C(/C=C/c1ccc([N+](=O)[O-])o1)/C=C/c1ccc([N+](=O)[O-])o1 [Class 5, hydrochloride]: bactericidal
- O=C(N/N=C/c1ccc([N+](=O)[O-])o1)c1cc([N+](=O)[O-])cc([N+](=O)[O-])c1O: bacteriostatic

---

Where a name gives a salt, the structure may show the parent alone.
Please consider the recorded MIC for Moraxella catarrhalis (ATCC 25238) in what follows.
measured quantity: MIC

• NC(N)=NN=C(/C=C/c1ccc([N+](=O)[O-])o1)/C=C/c1ccc([N+](=O)[O-])o1 [Class 5, hydrochloride] = 64 µg/mL
• O=C(/C=C/c1ccccc1)c1ccc(O)cc1O = 64 µg/mL
• COC(=O)c1c(C)c2c(c(C)c1O)OC(=O)c1c(C)c(Cl)c(O)c(Cl)c1O2 = 1 µg/mL
• O=C(N/N=C/c1ccc([N+](=O)[O-])o1)c1cc([N+](=O)[O-])cc([N+](=O)[O-])c1O = 32 µg/mL
• Cc1cc(C)nc(NC(=N)Nc2ccc(OCc3ccc(Cl)cc3)cc2)n1 = 64 µg/mL
